Data credit: ChEMBL document CHEMBL4325853

# System: Staphylococcus aureus
# experimental_details: Antibacterial activity against methicillin-resistant Staphylococcus aureus isolate 1610 after 18 hrs by broth microdilution method
# Format: functional
# condition_summary: isolate 1610, 18 h
quantity_kind: MIC90 (µg/mL)
API: value field is a number in µg/mL; no unit string.

Below, 2 compounds whose answers are already recorded.
CN[C@H](CC(C)C)C(=O)N[C@H]1C(=O)N[C@@H](CC(N)=O)C(=O)N[C@H]2C(=O)N[C@H]3C(=O)N[C@H](C(=O)N[C@H](C(=O)O)c4cc(O)cc(O)c4-c4cc3ccc4O)[C@H](O)c3ccc(c(Cl)c3)Oc3cc2cc(c3O[C@@H]2O[C@H](CO)[C@@H](O)[C@H](O)[C@H]2O[C@H]2C[C@](C)(N)[C@H](O)[C@H](C)O2)Oc2ccc(cc2Cl)[C@H]1O 1
CC(C)c1ccc(CN2CCCN(CCc3cc(-c4cccs4)nc(-c4ccncc4)n3)CC2)cc1 4

What does the data say about its MIC90? Entry: `FC(F)(F)c1ccc(CN2CCCN(CCc3cc(-c4cccs4)nc(-c4ccncc4)n3)CC2)cc1`
8

What does the data say about its MIC90? Entry: `CC(C)(C)c1ccc(CN2CCCN(CCc3cc(-c4cccs4)nc(-c4ccncc4)n3)CC2)cc1`
4

* * *

# Tested on: Staphylococcus aureus
# experimental_details: Antibacterial activity against methicillin-resistant Staphylococcus aureus isolate 2931 after 18 hrs by broth microdilution method
# Assay type: functional
# condition_summary: isolate 2931, 18 h
quantity_kind: MIC90 (µg/mL)
API: value field is a number in µg/mL; no unit string.

CC(C)c1ccc(CN2CCCN(CCc3cc(-c4cccs4)nc(-c4ccncc4)n3)CC2)cc1 2
CN[C@H](CC(C)C)C(=O)N[C@H]1C(=O)N[C@@H](CC(N)=O)C(=O)N[C@H]2C(=O)N[C@H]3C(=O)N[C@H](C(=O)N[C@H](C(=O)O)c4cc(O)cc(O)c4-c4cc3ccc4O)[C@H](O)c3ccc(c(Cl)c3)Oc3cc2cc(c3O[C@@H]2O[C@H](CO)[C@@H](O)[C@H](O)[C@H]2O[C@H]2C[C@](C)(N)[C@H](O)[C@H](C)O2)Oc2ccc(cc2Cl)[C@H]1O 1
CC(C)(C)c1ccc(CN2CCCN(CCc3cc(-c4cccs4)nc(-c4ccncc4)n3)CC2)cc1 2

Please examine the following record next.
What does the data say about its MIC90? Entry: `FC(F)(F)c1ccc(CN2CCCN(CCc3cc(-c4cccs4)nc(-c4ccncc4)n3)CC2)cc1`
4

* * *

# experimental_details: Selectivity index, ratio of HC50 for human erythrocytes to MIC for methicillin-resistant Staphylococcus aureus ATCC BAA1720
# Format: toxicity
# condition_summary: read-out: Selectivity Index
Each entry below carries its reported selectivity ratio.

CC(C)c1ccc(CN2CCCN(CCc3cc(-c4cccs4)nc(-c4ccncc4)n3)CC2)cc1 > 32

Please examine the following record next.
What does the data say about its selectivity ratio? Entry: `CC(C)(C)c1ccc(CN2CCCN(CCc3cc(-c4cccs4)nc(-c4ccncc4)n3)CC2)cc1`
> 32

* * *

Each entry below carries its reported MIC90.
# System: Staphylococcus aureus
# experimental_details: Antibacterial activity against methicillin-resistant Staphylococcus aureus isolate 8179 after 18 hrs by broth microdilution method
# Assay type: functional
# condition_summary: isolate 8179, 18 h
API: value field is a number in µg/mL; no unit string.

Below, 3 compounds whose answers are already recorded.
CC(C)(C)c1ccc(CN2CCCN(CCc3cc(-c4cccs4)nc(-c4ccncc4)n3)CC2)cc1 2
CN[C@H](CC(C)C)C(=O)N[C@H]1C(=O)N[C@@H](CC(N)=O)C(=O)N[C@H]2C(=O)N[C@H]3C(=O)N[C@H](C(=O)N[C@H](C(=O)O)c4cc(O)cc(O)c4-c4cc3ccc4O)[C@H](O)c3ccc(c(Cl)c3)Oc3cc2cc(c3O[C@@H]2O[C@H](CO)[C@@H](O)[C@H](O)[C@H]2O[C@H]2C[C@](C)(N)[C@H](O)[C@H](C)O2)Oc2ccc(cc2Cl)[C@H]1O 1
FC(F)(F)c1ccc(CN2CCCN(CCc3cc(-c4cccs4)nc(-c4ccncc4)n3)CC2)cc1 4

Please examine the following record next.
What does the data say about its MIC90? Entry: `CC(C)c1ccc(CN2CCCN(CCc3cc(-c4cccs4)nc(-c4ccncc4)n3)CC2)cc1`
2

* * *

# Tested on: Bacillus subtilis
# experimental_details: Antibacterial activity against Bacillus subtilis 168 after 18 hrs by broth microdilution method
# Type: functional
# condition_summary: subsp. subtilis str. 168, 18 h
Each entry below carries its reported MIC90.
API: value field is a number in mg/L; no unit string.

Below, 4 compounds whose answers are already recorded.
FC(F)(F)c1ccc(CN2CCCN(CCc3cc(-c4cccs4)nc(-c4ccncc4)n3)CC2)cc1 4
Cc1nc(-c2cccs2)cc([C@H]2CN3CC[C@H]2C[C@@H]3CNC(=O)CCCC(=O)O)n1 192
Brc1ccc(CN2CCCN(CCc3cc(-c4cccs4)nc(-c4ccncc4)n3)CC2)cc1 4
COc1ccc2cc3[n+](cc2c1OC)CCc1cc2c(cc1-3)OCO2 128

Please examine the following record next.
What does the data say about its MIC90? Entry: `Cc1nc(CCN2CCCN(Cc3ccc(F)c(F)c3)CC2)cc(-c2cccs2)n1`
128

* * *

Each entry below carries its reported MIC90.
# Tested on: Enterococcus faecalis
# experimental_details: Antibacterial activity against vancomycin-resistant Enterococcus faecalis ATCC 51575 after 18 hrs by broth microdilution method
# Type: functional
# condition_summary: ATCC 51575, 18 h
API: value field is a number in µg/mL; no unit string.

compound	tgt	MIC90 (µg/mL)
CC(C)(C)c1ccc(CN2CCCN(CCc3cc(-c4cccs4)nc(-c4ccncc4)n3)CC2)cc1	Enterococcus faecalis	4
COc1cccc(OC)c1C(=O)N[C@@H]1C(=O)N2[C@@H]1SC(C)(C)[C@@H]2C(=O)O [METHICILLIN]	Enterococcus faecalis	6

Please examine the following record next.
// fetch Enterococcus faecalis MIC90 for `CC(C)c1ccc(CN2CCCN(CCc3cc(-c4cccs4)nc(-c4ccncc4)n3)CC2)cc1`
2

* * *

Each entry below carries its reported selectivity ratio.
# experimental_details: Selectivity index, ratio of HC50 for human erythrocytes to MIC for methicillin-resistant Staphylococcus aureus ATCC 33592
# Format: toxicity
# condition_summary: read-out: Selectivity Index

CC(C)(C)c1ccc(CN2CCCN(CCc3cc(-c4cccs4)nc(-c4ccncc4)n3)CC2)cc1 > 32

Please examine the following record next.
What does the data say about its selectivity ratio? Entry: `CC(C)c1ccc(CN2CCCN(CCc3cc(-c4cccs4)nc(-c4ccncc4)n3)CC2)cc1`
> 32

* * *

# System: Staphylococcus aureus
# experimental_details: Antibacterial activity against methicillin-resistant Staphylococcus aureus isolate 7434 after 18 hrs by broth microdilution method
# Assay type: functional
# condition_summary: isolate 7434, 18 h
quantity_kind: MIC90 (µg/mL)
API: value field is a number in µg/mL; no unit string.

compound	tgt	MIC90 (µg/mL)
CN[C@H](CC(C)C)C(=O)N[C@H]1C(=O)N[C@@H](CC(N)=O)C(=O)N[C@H]2C(=O)N[C@H]3C(=O)N[C@H](C(=O)N[C@H](C(=O)O)c4cc(O)cc(O)c4-c4cc3ccc4O)[C@H](O)c3ccc(c(Cl)c3)Oc3cc2cc(c3O[C@@H]2O[C@H](CO)[C@@H](O)[C@H](O)[C@H]2O[C@H]2C[C@](C)(N)[C@H](O)[C@H](C)O2)Oc2ccc(cc2Cl)[C@H]1O [VANCOMYCIN]	Staphylococcus aureus	1

Please examine the following record next.
What does the data say about its MIC90? Entry: `CC(C)(C)c1ccc(CN2CCCN(CCc3cc(-c4cccs4)nc(-c4ccncc4)n3)CC2)cc1`
2

* * *

# Test system: Staphylococcus aureus
# experimental_details: Antibacterial activity against methicillin-resistant Staphylococcus aureus isolate 7807 after 18 hrs by broth microdilution method
# Format: functional
# condition_summary: isolate 7807, 18 h
quantity_kind: MIC90 (µg/mL)
API: value field is a number in µg/mL; no unit string.

What does the data say about its MIC90? Entry: `CC(C)(C)c1ccc(CN2CCCN(CCc3cc(-c4cccs4)nc(-c4ccncc4)n3)CC2)cc1`
2

What does the data say about its MIC90? Entry: `CC(C)c1ccc(CN2CCCN(CCc3cc(-c4cccs4)nc(-c4ccncc4)n3)CC2)cc1`
2

What does the data say about its MIC90? Entry: `FC(F)(F)c1ccc(CN2CCCN(CCc3cc(-c4cccs4)nc(-c4ccncc4)n3)CC2)cc1`
4

What does the data say about its MIC90? Entry: `CN[C@H](CC(C)C)C(=O)N[C@H]1C(=O)N[C@@H](CC(N)=O)C(=O)N[C@H]2C(=O)N[C@H]3C(=O)N[C@H](C(=O)N[C@H](C(=O)O)c4cc(O)cc(O)c4-c4cc3ccc4O)[C@H](O)c3ccc(c(Cl)c3)Oc3cc2cc(c3O[C@@H]2O[C@H](CO)[C@@H](O)[C@H](O)[C@H]2O[C@H]2C[C@](C)(N)[C@H](O)[C@H](C)O2)Oc2ccc(cc2Cl)[C@H]1O`
2
